Entries annotated with measured inhibition at 10 µM
Target: IL-4 (Homo sapiens, UniProt P05112)
Construct: purchased Acros Biosystems IL4-H4218; host or cells: HEK-293
Sequence (P05112 25-153): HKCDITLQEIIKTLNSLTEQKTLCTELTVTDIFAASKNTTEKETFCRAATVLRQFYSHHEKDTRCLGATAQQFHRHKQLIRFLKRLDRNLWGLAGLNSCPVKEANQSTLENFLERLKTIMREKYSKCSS
Test: HEK-Blue IL-4/IL-13 reporter assay, IL-4 inhibition
Type: cell-based
Settings: HEK-Blue, 10 μM, IL-4, HEK Blue IL-4/IL-13 reporter assay

compound	testedSystem	displayUnit	inhibition at 10 µM
N#Cc1c(-c2ccc(O)c(O)c2)cc(C2CCCCC2)nc1N	IL-4 (Homo sapiens, UniProt P05112)	%	49.4
N#Cc1c(-c2ccc(O)c(C(=O)O)c2)cc(-c2ccc(N)cc2)nc1N	IL-4 (Homo sapiens, UniProt P05112)	%	6.63
COc1cc(-c2cc(-c3ccc(F)cc3)[nH]c(=O)c2C#N)ccc1O	IL-4 (Homo sapiens, UniProt P05112)	%	67.6
N#CC1C(=O)N=C(c2ccc(O)cc2)C=C1c1ccc(O)c(O)c1 (stereo not drawn)	IL-4 (Homo sapiens, UniProt P05112)	%	94.1
N#Cc1c(-c2ccc(Cl)c(Cl)c2)cc(-c2ccc(F)cc2)[nH]c1=O	IL-4 (Homo sapiens, UniProt P05112)	%	44.2
N#Cc1c(-c2ccccc2O)cc(-c2ccc(F)cc2)nc1O	IL-4 (Homo sapiens, UniProt P05112)	%	100
N#Cc1c(-c2ccc(O)c(O)c2)cc(-c2ccc3ccccc3c2)[nH]c1=N	IL-4 (Homo sapiens, UniProt P05112)	%	54.7
COc1ccc(-c2cc(-c3ccc(F)cc3)[nH]c(=N)c2C#N)cc1O	IL-4 (Homo sapiens, UniProt P05112)	%	82.2
N#Cc1c(-c2ccc(O)cc2)cc(-c2ccc(F)cc2)[nH]c1=O	IL-4 (Homo sapiens, UniProt P05112)	%	60.7
N#Cc1c(-c2ccc(O)c(I)c2)cc(-c2ccc(F)cc2)[nH]c1=N	IL-4 (Homo sapiens, UniProt P05112)	%	58.9
N#Cc1c(-c2cccc(O)c2)cc(-c2ccc(F)cc2)[nH]c1=O	IL-4 (Homo sapiens, UniProt P05112)	%	64.3
N#Cc1c(-c2ccc(O)c(O)c2)cc(-c2ccccc2)[nH]c1=N	IL-4 (Homo sapiens, UniProt P05112)	%	95.5
N#Cc1c(-c2ccc(O)c(Br)c2)cc(-c2ccc(F)cc2)[nH]c1=N	IL-4 (Homo sapiens, UniProt P05112)	%	58.8
COc1cc(-c2cc(-c3ccc(F)cc3)[nH]c(=N)c2C#N)ccc1O	IL-4 (Homo sapiens, UniProt P05112)	%	100
N#Cc1c(-c2cccnc2)cc(-c2ccc(F)cc2)[nH]c1=N	IL-4 (Homo sapiens, UniProt P05112)	%	10
